// reported TNFa production per item
tested on: TNF-alpha production by human PBMC; assay: TNF-alpha production by human PBMC (ELISA); format: cell-based; details: cytokine secretion of hPBMC after stimulation with thiosemicarbazone compounds
Return type: number; implicit unit ng/10^6 cells/ml.

Would you please look over these solved cases?
NC(=S)N/N=C/c1ccc(NCCc2cccc(Cl)c2)c([N+](=O)[O-])c1 = 5
COc1cc(/C=N/NC(N)=S)cc(Br)c1OCc1ccccc1F = 5
NC(=S)N/N=C/c1ccccn1 = 2.34

// below: TNFa production requested for another molecule
Enter recorded TNFa production with TNF-alpha production by human PBMC for `C/C(=N\NC(N)=S)c1sc(-c2ncc(C(F)(F)F)cc2Cl)nc1C` here.
1.7

* * *

// reported TNFa production per item
test system: TNF-alpha production by human PBMC; assay: TNF-alpha production by human PBMC (ELISA); assay type: cell-based; details: cytokine secretion of hPBMC after stimulation with thiosemicarbazone compounds
Return type: number; implicit unit ng/10^6 cells/ml.

Would you please look over these solved cases?
Cc1ccc2c(c1)c1c(n2C)/C(=N/NC(N)=S)CCC1 = 1.25
NC(=S)N/N=C/c1cccc(OCc2ccccc2)c1 = 0
NC(=S)N/N=C/c1ccc(NCCc2ccc(Cl)cc2)c([N+](=O)[O-])c1 = 1.25

// below: TNFa production requested for another molecule
# return recorded TNFa production for input `NC(=S)N/N=C/c1ccc(-c2cccc(Cl)c2)o1`
2.32
